Sourced from PubChem BioAssay (NCI)

System: MCF7 breast
Experiment: NCI-60 one-dose screen, 48 h (100 = growth as untreated, 0 = no growth, -100 = all killed)
Details: 10 µM unless noted
The panel holds about 83,000 compounds, 20% with a hit somewhere; the sample as a whole holds those more often. Activity calls are given as the source filed them. Rule for the calls: active = growth percent below 10; inactive = the rest.
Measured growth values are reported for all entries that follow.

Check out these entries, answers already filled in.
COc1cc2cc(Oc3ccc(NC(=O)c4cccc(C(F)(F)F)c4)cc3)c(C)nc2cc1OCCN(C)C | 22.7% (inactive)
COc1cc(O)c2c(c1)/C=C/C[C@H](O)[C@H](O)C(=O)/C=C\C[C@H](C)OC2=O | 0.782% (active)
CCOc1c(C#N)c(Nc2ccc(S(N)(=O)=O)cc2)c(C#N)c2nnc(C)n12 | 97.2% (inactive)

# return recorded growth for entry Cn1cc2c(c1)-c1c(sc3nc(-c4ccc(NC(=O)Nc5cc(C(C)(C)C)on5)cc4)cn13)CC2
15.6% (inactive)

# return recorded growth for entry NC(=O)c1c(NC(=O)c2cccc(C(F)(F)F)c2F)sc2c1CCC(=O)C2
6.11% (active)

# return recorded growth for entry Cc1cn(-c2cc(NC(=O)c3cncc(C#Cc4cnc5ccc(OCCCS(C)(=O)=O)nn45)c3)cc(C(F)(F)F)c2)cn1
0.458% (active)

# return recorded growth for entry C#C[C@]1(O)CC[C@H]2[C@@H]3CC=C4c5sc(Nc6cc(OC)ccc6OC)nc5CC[C@]4(C)[C@H]3CC[C@@]21C
-2.69% (active)

# return recorded growth for entry CC1=CC(=O)CC(C)(C)[C@@]1(O)/C=C/C(C)=C\C(=O)O
-14.6% (active)
